Each recorded value in this set is attributed to ChEMBL document CHEMBL4184315.

The molecules listed here are annotated with their Ratio IC50.
- protocolDetails: Selectivity ratio of IC50 for human CK1epsilon to IC50 for full-length rat GST-tagged CK1delta

Study these solved cases before continuing.
- COc1ccccc1-n1c(SCC(=O)Nc2nc3ccc(C)cc3s2)nc2c(c1=O)SCC2: 4 to 7
- Cc1ccc2nc(NC(=O)CSc3nc4c(c(=O)n3Cc3ccccc3)SCC4)sc2c1: 4 to 7
- Cc1ccc2nc(NC(=O)CSc3nc4c(c(=O)n3-c3ccc(F)cc3)SCC4)sc2c1: 4 to 7

Name the recorded Ratio IC50 for `Cc1ccc2nc(NC(=O)CSc3nc4c(c(=O)n3-c3ccccc3)SCC4)sc2c1` .
4 to 7
